system: Wolbachia pipientis; assay: Anti-Wolbachia Cell-Based Screen; type: functional; design: scale not given: in the data most compounds retested in dose-response had high values; conditions: 5 µM
In all, about 48,000 compounds went through this assay and about 13,000 (27%) showed an effect of 50% or more. Some of the results follow.
endpoint_name: Percent Effect (%)
I only need the number, in %, no unit after it.

Recorded Percent Effect, per entry:
Cc1cnc(-c2nc(C3CCN(Cc4ccccc4O)CC3)no2)cn1: 140.6
c1ccc2[nH]c(C3CCN(Cc4nc(C5CC5)no4)CC3)cc2c1: 8.105

# ---- query molecule ----
Q) Using Wolbachia pipientis as the test system, report measured Percent Effect of CNC(=O)NC(=O)C(C)N1CCCc2cc(OC)ccc2C1 (stereo not drawn) .
A) -11.16

====

test system: Wolbachia pipientis; assay: Anti-Wolbachia Cell-Based Screen; type: functional; design: scale not given: in the data most compounds retested in dose-response had high values; conditions: 5 µM
Hit rate of the full screen: of about 48,000 compounds, about 13,000 (27%) showed an effect of 50% or more. Some of the results follow.
endpoint_name: Percent Effect (%)
I only need the number, in %, no unit after it.

CN(C)C(=O)C1CN(c2ncccn2)CCN1C (configuration not stated): 84.43
COC(=O)c1ccc(N2CCN(C(=O)c3ccn(C)c(=O)c3)CC2)cc1: 7.353
Nc1nc2c(c(NCc3cnc4c(c3)CCC4)n1)CCNC2: 77.65
Cc1nc(C2CCCN(c3ncc(Br)cn3)C2)no1 (configuration not stated): -7.201
CCC(C)NC(=O)c1coc(COc2cccc(F)c2)n1 (configuration not stated): -23.89
c1cc(CN2CCCC(c3noc(C4CC4)n3)C2)no1 (configuration not stated): 4.824

Q) Look up and report measured Percent Effect for this entry: Cc1cnc(-c2nc(C3CCCN(Cc4cccs4)C3)no2)cn1 (configuration not stated)
A) 85.43

Q) Look up and report measured Percent Effect for this entry: COCc1nnc(-c2cccc(C(=O)OC(C)C)c2)o1
A) -21.92

Q) Look up and report measured Percent Effect for this entry: COC(=O)c1cccc(C(=O)N2CCN(c3ccc(OC)cc3)CC2)n1
A) 142.3

====

tested on: Wolbachia pipientis; assay: Anti-Wolbachia Cell-Based Screen; assay type: functional; parameters: scale not given: in the data most compounds retested in dose-response had high values; settings: 5 µM
Among all 48,000 compounds or so, about 13,000 (27%) showed an effect of 50% or more. This is one part of the list.
endpoint_name: Percent Effect (%)
I only need the number, in %, no unit after it.

COc1ccc(CC(=O)N2CCN(C)c3ncccc3C2)cc1.O=C(O)C(F)(F)F: 1.148
O=C(NC1CCCN(c2ccccc2F)C1)c1ccon1 (configuration not stated): 18.57
COCCn1cc(NC(=O)NC(C)c2ccc(Cl)s2)cn1 (configuration not stated): 1.705
CC(C(=O)NCC1CCCCC1)S(=O)(=O)Cc1csc(-c2cccs2)n1 (configuration not stated): -22.28

Q) Look up and report measured Percent Effect for this entry: Cc1n[nH]c(C)c1CNC(=O)NC1CCCN(c2ccccc2F)C1 (configuration not stated)
A) -5.16

Q) Look up and report measured Percent Effect for this entry: c1ccc(CCN2CCCC(c3noc(C4CC4)n3)C2)cc1 (configuration not stated)
A) -7.15

Q) Look up and report measured Percent Effect for this entry: COCCNC(=O)NCCCOC1CCCc2ccccc21 (configuration not stated)
A) -3.457

Q) Look up and report measured Percent Effect for this entry: COCCN1CCN(S(=O)(=O)c2ccccc2)Cc2cccnc21.O=C(O)C(F)(F)F
A) 100.4

Q) Look up and report measured Percent Effect for this entry: O=C(NC1CCN(c2ccccc2Br)C1)c1c[nH]nn1 (configuration not stated)
A) 111.1

Q) Look up and report measured Percent Effect for this entry: O=C(NC1CCCCC1)[C@H]1CNC[C@@H](COc2cccnc2)C1
A) 11.4

Q) Look up and report measured Percent Effect for this entry: O=S(=O)(NCCn1ccc(-c2cccs2)n1)C1CC1
A) 1.599

Q) Look up and report measured Percent Effect for this entry: O=C(NC1CCCN(c2ncccn2)C1)c1cn2ccccc2n1 (configuration not stated)
A) -4.664

Q) Look up and report measured Percent Effect for this entry: COc1ccc(S(=O)(=O)N2CCN(C)c3ncccc3C2)cc1.O=C(O)C(F)(F)F
A) 100.8

Q) Look up and report measured Percent Effect for this entry: CCn1c(N)nc2cc(C(=O)NCCc3ccccc3C)cnc21
A) -8.06

Q) Look up and report measured Percent Effect for this entry: c1ccc(CCN2CCCC(c3ccnc4nccn34)C2)cc1 (configuration not stated)
A) 130.1

Q) Look up and report measured Percent Effect for this entry: CCn1ccnc1CN(C)C1CCCN(CCc2ccccc2)C1 (configuration not stated)
A) 17.47

Q) Look up and report measured Percent Effect for this entry: O=C(NC1CCCN(c2ccc(OC(F)F)cc2)C1)c1cc[nH]n1 (configuration not stated)
A) 14.46

Q) Look up and report measured Percent Effect for this entry: COc1cccc(CC(=O)N2CCN(C)c3ncccc3C2)c1.O=C(O)C(F)(F)F
A) -8.872

Q) Look up and report measured Percent Effect for this entry: O=C(NCC1CC1)C1CN(C(=O)NC2CCCC2)Cc2cncn2C1 (configuration not stated)
A) 100.7

Q) Look up and report measured Percent Effect for this entry: O=C([C@@H]1Cc2[nH]cnc2CN1C(=O)NC1CCCCC1)N1CCCC1
A) 6.906

Q) Look up and report measured Percent Effect for this entry: CSCCCNC(=O)Nc1cccc(-c2nccn2C)c1
A) 3.955

Q) Look up and report measured Percent Effect for this entry: Cc1ccc(C(=O)N2C[C@@H](C(=O)O)[C@H](c3ccncc3)C2)cc1F
A) 1.77

Q) Look up and report measured Percent Effect for this entry: Cc1ccc(F)c(C(=O)N2C[C@@H](C(=O)O)[C@H](c3ccncc3)C2)c1Cl
A) -4.386
